// provenance: patent US8357694B2

Answer each item with its documented melting point.
Counter-ions that a name gives are not always drawn.

In: Need melting point of COCCN1CCN(CCc2ccc(Nc3ncc4c(n3)-c3ccccc3[C@H](c3cccc(Br)c3)C4)cc2)CC1 (as salt: hydrochloride) [Example 77] , thanks.
Out: 263 to 265 °C

In: Look up melting point: CN(CCc1ccc(Nc2ncc3c(n2)-c2ccccc2[C@H](c2ccc(F)c(F)c2)C3)cc1)C1CCCCC1 (as salt: hydrochloride) [Example 85]
Out: 96 to 98 °C

In: Item under review: CN(C)CCc1ccc(Nc2ncc3c(n2)-c2ccccc2[C@H](c2ccc(F)c(F)c2)C3)cc1 (as salt: hydrochloride) [Example 87] . Reported melting point?
Out: 165 to 167 °C

In: Name the reported melting point value associated with the molecule `CC(C)(C)OC(=O)N1CCC[C@@H](Nc2ncc3c(n2)-c2ccccc2[C@@H](c2ccc(Cl)c(Cl)c2)C3)C1`
Out: 85 to 87 °C

In: For the molecule OCCc1ccc(Nc2ncc3c(n2)-c2ccccc2C(c2cccc(Br)c2)C3)cc1 (centres unmarked) [Example 7] , what melting point is on record?
Out: 88 to 90 °C

Field: melting point. Fill in for each record below.
1. CCCCN(C)CCc1ccc(Nc2ncc3c(n2)-c2ccccc2C(c2ccc(F)c(F)c2)C3)cc1 (centres unmarked) (as salt: hydrochloride) [Example 58]
2. Fc1ccc([C@H]2Cc3cnc(Nc4ccc(CCN5CCCCC5)cc4)nc3-c3ccccc32)cc1F (as salt: hydrochloride) [Example 91]
3. Fc1ccccc1[C@@H]1Cc2cnc(Nc3ccc(CCN4CCCCC4)cc3)nc2-c2ccccc21 (as salt: hydrochloride) [Example 67]
4. Fc1ccc([C@@H]2Cc3cnc(Nc4ccc(CCN5CCCCC5)cc4)nc3-c3ccccc32)cc1F (as salt: hydrochloride) [Example 84]
5. CCCCN(C)CCc1ccc(Nc2ncc3c(n2)-c2ccccc2[C@@H](c2ccc(Br)cc2)C3)cc1 (as salt: hydrochloride) [Example 107]
6. COCCN1CCN(CCc2ccc(Nc3ncc4c(n3)-c3ccccc3C(c3ccccc3C(F)(F)F)C4)cc2)CC1 (centres unmarked) [Example 69]
7. N#Cc1c(NCCCN2CCCC2)ncc2c1-c1ccccc1C(c1ccc(Cl)c(Cl)c1)C2 (centres unmarked) [Example 180]

Out:
1. 85 to 91 °C
2. 165 to 167 °C
3. 170 to 174 °C
4. 163 to 165 °C
5. 140 to 145 °C
6. 139 to 140 °C
7. 104 to 110 °C

Give melting point for each of the items listed below.
1. OCCc1cc(Nc2ncc3c(n2)-c2ccccc2[C@H](c2ccccc2F)C3)ccc1F [Example 169]
2. Clc1ccc([C@@H]2Cc3cnc(Nc4ccc(CCN5CCCCC5)cc4)nc3-c3ccccc32)cc1 (as salt: hydrochloride)

Out:
1: 140 to 141 °C; 2: 261 to 263 °C
